Exercise: state measured pIC50 for each of the compounds provided.
# Measurement Target: c-KIT (Homo sapiens, UniProt P10721)
# Construct: M-07e cells (human acute megakaryoblastic leukemia cell line) were serum-starved for 4 hours; endogenous in cells
# Sequence (P10721 26-976): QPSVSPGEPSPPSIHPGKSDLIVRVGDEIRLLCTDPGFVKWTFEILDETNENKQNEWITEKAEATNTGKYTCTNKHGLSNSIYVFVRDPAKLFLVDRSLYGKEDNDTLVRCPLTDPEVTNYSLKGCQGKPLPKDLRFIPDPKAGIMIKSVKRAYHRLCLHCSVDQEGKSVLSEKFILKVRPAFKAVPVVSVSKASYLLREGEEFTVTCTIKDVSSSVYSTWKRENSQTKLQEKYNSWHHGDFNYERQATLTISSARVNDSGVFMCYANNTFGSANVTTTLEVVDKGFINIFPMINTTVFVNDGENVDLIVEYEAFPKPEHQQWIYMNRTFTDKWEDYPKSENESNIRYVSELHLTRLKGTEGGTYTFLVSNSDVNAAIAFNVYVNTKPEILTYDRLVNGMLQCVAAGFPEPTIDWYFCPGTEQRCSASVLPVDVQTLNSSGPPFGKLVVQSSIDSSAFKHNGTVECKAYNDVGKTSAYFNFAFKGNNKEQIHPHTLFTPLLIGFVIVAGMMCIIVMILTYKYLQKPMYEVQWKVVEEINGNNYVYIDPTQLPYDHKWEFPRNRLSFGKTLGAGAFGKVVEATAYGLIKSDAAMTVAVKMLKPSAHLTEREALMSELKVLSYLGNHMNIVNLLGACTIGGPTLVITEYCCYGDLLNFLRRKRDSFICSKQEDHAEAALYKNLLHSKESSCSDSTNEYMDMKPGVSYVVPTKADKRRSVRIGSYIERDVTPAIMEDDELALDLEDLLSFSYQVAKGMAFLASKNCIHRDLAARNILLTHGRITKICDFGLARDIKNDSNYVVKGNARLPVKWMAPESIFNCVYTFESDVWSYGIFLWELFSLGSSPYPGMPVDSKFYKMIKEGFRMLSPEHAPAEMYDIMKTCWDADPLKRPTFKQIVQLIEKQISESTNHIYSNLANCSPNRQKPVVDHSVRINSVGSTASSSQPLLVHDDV
# Assay Details: c-KIT Cell-Based Assay (Example D)
# Cond: averaged IC50; phospho-c-KIT in M-07e cells stimulated with 150 ng/ml recombinant human SCF; read-out: cKIT Cell ELISA IC50
# Protocol: The ability of compounds of Formula I to inhibit c-KIT activation in cells was determined by the following assay. […] Cells were lysed in a manner which preserves phosphoproteins, and the lysate was analyzed by ELISA (R&D Systems, Human Phospho-SCF R DuoSet IC DYC3527), in which total c-KIT protein in the lysate is captured and phosphotyrosine residues of c-Kit are detected. A standard curve, made using purified phospho-SCF R protein, was used to quantify phospho-c-KIT in compound-treated wells. […]
Where a name gives a salt, the structure may show the parent alone.
Scale for pIC50: -log10 of concentration given in mol/L; no unit attached.

// field: pIC50; key: `N#Cc1ccc2ncc(C(=O)Nc3cccc4c3cnn4Cc3ccccc3)n2c1` ; value = 6.82

// field: pIC50; key: `O=C(Nc1cccc2c1cnn2Cc1ccccc1)c1cnc2ccccn12` ; value = 7.65

// field: pIC50; key: `C[C@H]1CN(CCOc2ccn3c(C(=O)Nc4cccc5c4c(F)nn5Cc4cccc(C5CC5)n4)cnc3c2)CCN1C` ; value = 8.19

// field: pIC50; key: `Cc1nn(Cc2cc(C)n(C(C)C)n2)c2cccc(NC(=O)c3cnc4cc(OCCN5CC6(CN(C)C6)C5)ccn34)c12` ; value = 6.91

// field: pIC50; key: `COCCOc1ccn2c(C(=O)Nc3cccc4c3cnn4C[C@@H]3CCCN(C(=O)OC(C)(C)C)C3)cnc2c1` ; value = 6.90

// field: pIC50; key: CN1CCN(CCOc2ccn3c(C(=O)Nc4cccc5c4cnn5Cc4cccn(C)c4=O)cnc3c2)CC1 [Example 104, dihydrochloride] ; value = 6.40

// field: pIC50; key: `Cc1nn(Cc2ccc(C(F)(F)F)cn2)c2cccc(NC(=O)c3cnc4cc(OCCN5CCN(C(C)C)CC5)ccn34)c12` ; value = 7.20

// field: pIC50; key: `Cc1cccc(Cn2nc(C)c3c(NC(=O)c4cnc5cc(-c6ccc(=O)n(C)c6)ccn45)cccc32)n1` ; value = 6.19

// field: pIC50; key: `COCCOc1ccn2c(C(=O)Nc3cccc4c3cnn4CC3CCCCC3)cnc2c1` ; value = 7.87

// field: pIC50; key: `Cc1nn(Cc2ccn(C(C)C)n2)c2cccc(NC(=O)c3cnc4cc(OCCN5CCN(C(C)C)CC5)ccn34)c12` ; value = 7.27

// field: pIC50; key: `COCCOc1ccn2c(C(=O)Nc3cccc4c3cnn4Cc3ccccn3)cnc2c1` ; value = 7.16

// field: pIC50; key: `Cc1cccc(Cn2nc(C)c3c(NC(=O)c4cnc5cc(OCCN6CCOCC6)ccn45)cccc32)n1` ; value = 5.83

// field: pIC50; key: CN1CCN(CCOc2ccn3c(C(=O)Nc4cccc5c4cnn5Cc4ccc(C(F)(F)F)cn4)cnc3c2)CC1 [Example 103, trihydrochloride] ; value = 8.14

// field: pIC50; key: Cc1cccc(Cn2ncc3c(NC(=O)c4cnc5cc(OCCN6CCN(C)CC6)ccn45)ccc(Cl)c32)n1 [Example 101, trihydrochloride] ; value = 7.52

// field: pIC50; key: `Cc1cccc(Cn2ncc3c(NC(=O)c4cnc5cc(OCCN6CCN(C)CC6)ccn45)cccc32)n1` ; value = 7.84

// field: pIC50; key: `COc1cccc(Cn2nc(C)c3c(NC(=O)c4cnc5cc(OCCN6CCN(C)CC6)ccn45)cccc32)n1` ; value = 6.43

// field: pIC50; key: CC(c1ccn2c(C(=O)Nc3cccc4c3cnn4Cc3ccccc3)cnc2c1)N1CCOCC1 (stereo not drawn) ; value = 6.72

// field: pIC50; key: `Cc1cccc(Cn2nc(C)c3c(NC(=O)c4cnc5cc(F)ccn45)cccc32)n1` ; value = 5.34
